# Target entity: CYP2C9 (Homo sapiens (Human), UniProt P11712)
# Sequence (P11712 whole entry): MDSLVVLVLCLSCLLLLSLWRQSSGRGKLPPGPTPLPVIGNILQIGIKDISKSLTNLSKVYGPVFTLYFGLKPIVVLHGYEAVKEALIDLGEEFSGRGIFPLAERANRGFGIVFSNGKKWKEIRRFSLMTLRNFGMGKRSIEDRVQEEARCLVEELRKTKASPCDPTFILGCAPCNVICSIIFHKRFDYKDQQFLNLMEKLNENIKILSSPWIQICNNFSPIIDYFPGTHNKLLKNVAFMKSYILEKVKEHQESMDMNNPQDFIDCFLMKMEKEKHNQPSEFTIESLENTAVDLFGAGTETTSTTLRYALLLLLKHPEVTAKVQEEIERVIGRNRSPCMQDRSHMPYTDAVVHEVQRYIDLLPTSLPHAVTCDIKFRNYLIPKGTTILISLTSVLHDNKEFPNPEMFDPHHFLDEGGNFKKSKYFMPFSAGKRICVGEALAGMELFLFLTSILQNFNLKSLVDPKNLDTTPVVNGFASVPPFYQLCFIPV
# Assay protocol: CYP inhibition potential, CYP2C9
# Format: in vitro ADME
Use T when the recorded % CYP Inhibition @ 10 μM 2C9 is no lower than 40%; use F when it is lower.

| Molecule | Class name |
| --- | --- |
| Nc1ccc(-c2ccccc2)cc1NC(=O)c1ccc(CNC(=O)C2CCCCC2)cc1 [Example 14i] | F |
| Nc1ccc(-c2ccccc2)cc1NC(=O)c1ccc(CNC(=O)CCc2cccnc2)cc1 [Example 14a] | T |
| COC(=O)NCc1ccc(C(=O)Nc2cc(-c3ccccc3)ccc2N)cc1 [Example 14f] | T |
| CCC(=O)NCc1ccc(C(=O)Nc2cc(-c3ccccc3)ccc2N)cc1 [Example 14h] | F |
| CCOC(=O)NCc1ccc(C(=O)Nc2cc(-c3ccccc3)ccc2N)cc1 [Example 14e] | F |

Check if % CYP Inhibition @ 10 μM 2C9 >= 40% (inclusive). Item: Nc1ccc(-c2ccccc2)cc1NC(=O)c1ccc(CNC(=O)OCc2ccccn2)cc1 [Example 14b] T

Check if % CYP Inhibition @ 10 μM 2C9 >= 40% (inclusive). Item: CCCC(=O)NCc1ccc(C(=O)Nc2cc(-c3ccccc3)ccc2N)cc1 [Example 14g] F
